Measured IC50 accompanies every entry in the list below.
assaySystem: Phosphatidylinositol 4,5-bisphosphate 3-kinase catalytic subunit alpha isoform (Homo sapiens)
Sequence (P42336 whole entry, canonical isoform): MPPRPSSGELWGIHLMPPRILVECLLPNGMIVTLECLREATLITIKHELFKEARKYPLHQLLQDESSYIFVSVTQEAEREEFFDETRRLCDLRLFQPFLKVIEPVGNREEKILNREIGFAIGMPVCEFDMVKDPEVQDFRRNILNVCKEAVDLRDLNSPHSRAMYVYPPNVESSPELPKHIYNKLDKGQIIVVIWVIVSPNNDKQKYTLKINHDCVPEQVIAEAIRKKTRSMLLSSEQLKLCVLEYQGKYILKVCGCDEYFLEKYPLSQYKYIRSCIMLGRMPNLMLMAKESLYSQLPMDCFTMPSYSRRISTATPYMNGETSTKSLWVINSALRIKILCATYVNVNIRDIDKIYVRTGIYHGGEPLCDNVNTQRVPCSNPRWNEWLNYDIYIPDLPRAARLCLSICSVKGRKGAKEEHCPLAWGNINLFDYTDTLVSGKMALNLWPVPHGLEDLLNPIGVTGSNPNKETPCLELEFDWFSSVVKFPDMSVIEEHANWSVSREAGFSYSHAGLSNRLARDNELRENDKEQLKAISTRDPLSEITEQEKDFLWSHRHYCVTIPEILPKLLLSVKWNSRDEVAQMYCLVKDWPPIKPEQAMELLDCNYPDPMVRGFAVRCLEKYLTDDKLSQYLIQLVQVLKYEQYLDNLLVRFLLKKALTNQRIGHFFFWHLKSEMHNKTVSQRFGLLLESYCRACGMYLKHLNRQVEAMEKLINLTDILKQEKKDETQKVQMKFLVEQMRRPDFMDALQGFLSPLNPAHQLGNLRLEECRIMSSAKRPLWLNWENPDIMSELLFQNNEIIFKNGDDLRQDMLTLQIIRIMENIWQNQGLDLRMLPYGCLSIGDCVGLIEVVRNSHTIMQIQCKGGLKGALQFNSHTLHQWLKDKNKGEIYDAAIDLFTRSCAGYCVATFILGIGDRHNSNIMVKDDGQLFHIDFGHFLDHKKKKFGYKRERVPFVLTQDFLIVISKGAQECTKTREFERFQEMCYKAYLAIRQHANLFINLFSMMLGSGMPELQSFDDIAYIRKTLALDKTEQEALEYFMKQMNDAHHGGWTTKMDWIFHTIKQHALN
assayName: Inhibition of human PI3Kalpha using phosphatidylinositol as substrate and [33gammaP]ATP after 2 hrs by scintillation counting
measuredParameter: IC50 (nM)

- smilesRepr: "CC(=O)Nc1nc(C)c(-c2cnc(Nc3cccnc3)o2)s1"
  measuredParameter: "IC50"
  recordedMeasurement: 102
- smilesRepr: "CC(=O)Nc1nc(C)c(-c2cnc(Sc3cccnc3)o2)s1"
  measuredParameter: "IC50"
  recordedMeasurement: 112
- smilesRepr: "CC(=O)Nc1nc(C)c(-c2cnc(C(C)(C)C)o2)s1"
  measuredParameter: "IC50"
  recordedMeasurement: 15
